biological target: NHE-1 (Na+/H+ exchanger isoform 1) (Homo sapiens, UniProt P19634); assay: BCECF pHi recovery from NH4Cl acid load
Sequence (P19634 whole entry, canonical isoform): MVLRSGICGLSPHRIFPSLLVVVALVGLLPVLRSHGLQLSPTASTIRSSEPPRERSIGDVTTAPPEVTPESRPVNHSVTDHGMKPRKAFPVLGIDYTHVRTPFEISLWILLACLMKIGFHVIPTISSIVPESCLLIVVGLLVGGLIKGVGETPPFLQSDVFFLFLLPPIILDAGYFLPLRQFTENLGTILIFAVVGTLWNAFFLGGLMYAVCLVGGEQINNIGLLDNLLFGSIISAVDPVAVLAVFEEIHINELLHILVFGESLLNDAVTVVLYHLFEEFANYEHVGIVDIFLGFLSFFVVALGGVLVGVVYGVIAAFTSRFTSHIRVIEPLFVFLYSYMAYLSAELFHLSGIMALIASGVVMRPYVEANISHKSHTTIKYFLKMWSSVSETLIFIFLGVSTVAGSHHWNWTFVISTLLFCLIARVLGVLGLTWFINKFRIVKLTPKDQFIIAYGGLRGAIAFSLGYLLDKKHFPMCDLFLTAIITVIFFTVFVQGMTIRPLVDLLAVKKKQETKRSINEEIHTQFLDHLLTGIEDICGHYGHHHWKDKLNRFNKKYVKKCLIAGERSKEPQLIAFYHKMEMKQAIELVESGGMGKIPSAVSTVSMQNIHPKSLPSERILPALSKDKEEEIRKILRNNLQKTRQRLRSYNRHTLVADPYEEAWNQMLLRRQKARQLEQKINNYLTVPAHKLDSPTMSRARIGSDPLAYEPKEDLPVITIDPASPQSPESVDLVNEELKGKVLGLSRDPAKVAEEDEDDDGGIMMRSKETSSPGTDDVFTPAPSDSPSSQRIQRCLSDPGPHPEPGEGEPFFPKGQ
attribute-measured: IC50

Noted for CS(=O)(=O)c1cc(C(=O)N=C(N)N)ccc1N1CCCCC1 [HOE694] : its IC50 reads ~10 nM
